Biological target: T1, PDZRN3_1, Q9UPQ7
T1 sequence (Q9UPQ7 244-349, limits assumed, looked up): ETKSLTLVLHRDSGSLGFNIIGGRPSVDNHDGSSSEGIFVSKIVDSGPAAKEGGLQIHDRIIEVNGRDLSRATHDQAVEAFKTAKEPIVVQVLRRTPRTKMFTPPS
Assay: holdup assay
Set-up: key: below the threshold = too weak to quantify, mostly under pKd 3.1 to 4
Settings: plain residues with an end cap or a label only (N-terminal biotin on a linker: ado-ado)
experimental_readout: pKd

> print(dat)
                          binder       value.measured
 1  ARESQKVSHV [FAM110B, Q8TC76]  below the threshold
 2    QLSFNTDTLC [ABCA2, Q9BZC7]  below the threshold
 3    LESTTVGTSV [KARS1, Q15046]                 4.24
 4  PTPDLPQTRV [KLHDC7A, Q5VTJ3]                 3.53
 5    ARSAAASNYV [CLDN4, O14493]  below the threshold
 6    RSSGGDDFWF [KCNV1, Q6PIU1]  below the threshold
 7      KSRVAFFEEL [NF2, P35240]                 3.54
 8  LKDDELKTKL [SLCO1A2, P46721]  below the threshold
 9  PYSESDDDWC [CACNA1A, O00555]  below the threshold
10   TISFTQTSQF [SLC1A1, P43005]  below the threshold
11    NVYGIESVKI [GRIA2, P42262]  below the threshold
12     SRSVVESDEL [MYPN, Q86TC9]  below the threshold
13  DDASLPVSDV [PLEKHA1, Q9HB21]  below the threshold
14    LPAVCYDIDI [PTTG2, Q9NZH5]  below the threshold
15    GTGYDRKDYV [CLDN3, O15551]  below the threshold
16   NTLNRKTTPV [CACNG8, Q8WXS5]                 3.97
